Tested on: VchCAST RNA-guided transposition machinery (E. coli BL21(DE3) host, lacZ target)
Experiment: relative integration efficiency (T-RL orientation) vs wild-type transposon end (log2 (normalized fold change)); transposon end mutated: right end (5 bp flank + 75 bp right end); higher = more efficient transposition
Endpoint name: relative integration efficiency (log2)

Example sequences with recorded relative integration efficiency (log2):
>>> reported("ACATTTGTTGATACACCCATAAATTGATAATTACAACCATATATTGATATCTCTCACAACCATAAGTTGATATTTTCTCTGATCATAGTCAGACCAACATTGCTACGACCCGTATTCGCACCGACAC")
0.516
>>> reported("ACATTTGTTGATACAACCATTAAATGATAATTACACCCATAAATTGATAATTGTGACACCGAATTTAACTATAACGCTCTGATCATAGTCAGACCAACATTGCTACGACCCGTATTCGCACCGACAC")
-1.2
>>> reported("ACATTTGTTGATACAACCATAAAATGATAATTACACCCATAAATTGATAATTTACACACCCATAAATTGATATTGCCTCTGATCATAGTCAGACCAACATTGCTACGACCCGTATTCGCACCGACAC")
-0.0701
>>> reported("ACATTTGTTGATATGTCAACCATAAAATGATAATTACACCCATAAATTGATAATTATCACACCCATAAATTGATATTGCCTCTGATCATAGTCAGACCAACATTGCTACGACCCGTATTCGCACCGA")
-2.13

Read the next record carefully.
Q. State the recorded relative integration efficiency (log2) for this entry: ACATTTGTAAAAAAAACCATACGTTGATTTTACGAAACCATACGCTGAAATAATCACAACCATACCTTGAAATTGCCTCTGATCATAGTCAGACCAACATTGCTACGACCCGTATTCGCACCGACAC
A. -7.16

###

Test system: VchCAST RNA-guided transposition machinery (E. coli BL21(DE3) host, lacZ target)
Experiment: relative integration efficiency (T-RL orientation) vs wild-type transposon end (log2 (normalized fold change)); transposon end mutated: left end; higher = more efficient transposition
Endpoint name: relative integration efficiency (log2)
// keep it numeric: no unit symbol after the value

>>> reported("AATGTTGTTGATGCAACCATAAAGTGATATTTAATAATTATTTATAATCAGCAACTTAACCACAAAACAACCATATATTGATCGAGACACCCCACCAACGCCTGGTCGCGGGGGTGTCCGATCTGATTTCAGCAAAACTACTGCAGTAAGAA")
-3.99

Q. Can you look up the measured relative integration efficiency (log2) of AATGTTGTTGATGCAACCATAAAGTGATATTTGCTAGCATTGTACCTAGGACTGAGCTAGCCATAAACAACCATATATTGATATCTCACAAAACAACCATAAGTTGATATTTTTGTGAATCGAGTATTTCAGCAAAACTACTGCAGTAAGAA for me?
A. -3.5

Q. And AATGTTGTTGATGCAACCATAAAGTGATATTTAATAATTATTTATAATCAGCAACTTAACCACAAAACAAAACGCGCGGTCGCGAGACACCCCACCAACGCCTGGTCGCGGGGGTGTCCGATCTGATTTCAGCAAAACTACTGCAGTAAGAA ?
A. -6.07

Q. Subsequent entry: AATGTTGTTGATGCAACCATAAAGTGATATTTAATAATTCGGGCGCCGACTACCAGGCCAACACCCCACCAACGCGCGGTCGCGAGACACCCCACCAACGCCTGGTCGCGGGGGTGTCCGATCTGATTTCAGCAAAACTACTGCAGTAAGAA
A. -7.09

###

System: VchCAST RNA-guided transposition machinery (E. coli BL21(DE3) host, lacZ target)
Experiment: relative integration efficiency (T-LR orientation) vs wild-type transposon end (log2 (normalized fold change)); transposon end mutated: right end (5 bp flank + 75 bp right end); higher = more efficient transposition
Endpoint name: relative integration efficiency (log2)
Field format: numeric only.

>>> reported("ACATTTGTTGATACCACCATAAAATGATAATTCCACCCCTACATTGATAATTATCACACCCAATTTAACTATAACGCTCTGATCATAGTCAGACCAACATTGCTACGACCCGTATTCGCACCGACAC")
-0.121
>>> reported("ACATTTGTTGATACAACCATAAAATGATAATTACACCCAATTTTTGATAATTATCACACCCATAAATTGATATTGCCTCTGATCATAGTCAGACCAACATTGCTACGACCCGTATTCGCACCGACAC")
-0.688
>>> reported("ACATTTGTTGATACAACCATAAAGTGATATTTACACCCATAAATTGATATTGCTCAGTGGGTATTTAACTATAACGCTCTGATCATAGTCAGACCAACATTGCTACGACCCGTATTCGCACCGACAC")
2.56
>>> reported("ACATTTGTTGATACAACCATAAAATGATAATTCACCCCTAAATTGATAATTATCACACCCACATTTAACTATAACGCTCTGATCATAGTCAGACCAACATTGCTACGACCCGTATTCGCACCGACAC")
-0.17

Q. Report relative integration efficiency (log2) for ACATTTGTTGATACAACCATAAAATGATAATTACACCCATAAATTGATAATTATCACACCCATAAATTGATATTGCCTCTGATCATTTACTTTTGGTTACATATTTAGTCAGACCAAGCACCGACAC please.
A. 0.713

###

System: VchCAST RNA-guided transposition machinery (E. coli BL21(DE3) host, lacZ target)
Assay: relative integration efficiency (T-RL orientation) vs wild-type transposon end (log2 (normalized fold change)); transposon end mutated: right end (5 bp flank + 75 bp right end); higher = more efficient transposition
Endpoint name: relative integration efficiency (log2)

Examples from the recorded data:
>>> reported("ACATTGGTGGATACAACCATAAAATGATAATTACACCCATAAATTGATCATTATCACACCCAATTTAACTATAACGCTCTGATCATAGTCAGACCAACATTGCTACGACCCGTATTCGCACCGACAC")
-6.97
>>> reported("ACATTTGTTGATACACCCATAAATTGATATTGCCAACCATAAGTTGATATTTTTCAGTGGGTATTTAACTATAACGCTCTGATCATAGTCAGACCAACATTGCTACGACCCGTATTCGCACCGACAC")
-1.31
>>> reported("ACATTTGTTGATACAACCATAAAGTGATATTTACACCCATAAATTGATAATTATCACAACCATAAGTTGATATTTTCTCTGATCATAGTCAGACCAACATTGCTACGACCCGTATTCGCACCGACAC")
-0.313
>>> reported("ACATTTGTTGATACAACCATAAAATGATAATTACACCCATAAATTGAGCCGTATCACACCCATAAATTGATATTGCCTCTGATCATAGTCAGACCAACATTGCTACGACCCGTATTCGCACCGACAC")
-1.03

Q. I am curious: what relative integration efficiency (log2) value has been reported for ACATTTGTTGATACAACCATAAAGTGATATTTACAACCATAAGTTGATATTTTTCACACCCATAAATTGATAATTACTCTGATCATAGTCAGACCAACATTGCTACGACCCGTATTCGCACCGACAC ?
A. -0.192

Q. Queued: ACATTTGTTGATACAACCATAAAATGATAATTACACCCATAAATTGATAATTATGACACCGAATTTAACTATAACGCTCTGATCATAGTCAGACCAACATTGCTACGACCCGTATTCGCACCGACAC
A. -1.22

Q. Follow-up entry: ACATTTGTTGATACAACCATAAAGTGATATTTACAACCATAAGTTGATATTTTTCACAACCATAAAGTGATATTTACTCTGATCATAGTCAGACCAACATTGCTACGACCCGTATTCGCACCGACAC
A. 0.0395

Q. Again, but for ACATTTGTTGATACAACCATAAAATGATACGTACACCCATAAATTGATAATTATCACACCCATAAATTGATATTGCCTCTGATCATAGTCAGACCAACATTGCTACGACCCGTATTCGCACCGACAC
A. -0.82

###

Readings of relative integration efficiency (log2) for the listed sequences
Test system: VchCAST RNA-guided transposition machinery (E. coli BL21(DE3) host, lacZ target)
Assay: relative integration efficiency (T-RL orientation) vs wild-type transposon end (log2 (normalized fold change)); transposon end mutated: right end (5 bp flank + 75 bp right end); higher = more efficient transposition
The answer should be a number; do not append a unit.

In the examples that follow, each entry is paired with its recorded relative integration efficiency (log2).
>>> reported("ACATTTGTTGATACAACCATAAAATGATAATTACACCCATAAATTGATAATTATCACACCCATAAATTGATATTGCCTCTGATCATAGTCAGACAACCATAAAATGATAATTACCAAGCACCGACAC")
-0.231
>>> reported("ACATTTGTTGATACAACCATAAAATGATAATTACACCCATAAATTGATAATTATCACACCACTAAATTGATATTGCCTCTGATCATAGTCAGACCAACATTGCTACGACCCGTATTCGCACCGACAC")
-0.503
>>> reported("ACATTTGTTGATACAACCATAAAATGATAATTACTCTGATCATAGTCACACCCATAAATTGATAATTATCAGTGGGTATTTAACTATAACGGACCAACATTGCTACGACCCGTATTCGCACCGACAC")
-3.34
>>> reported("ACATTTGTTGATACAACCATAAAATGATAATTAACCCCATAAATTGATAATTATCACACCCATAAATTGATATTGCCTCTGATCATAGTCAGACCAACATTGCTACGACCCGTATTCGCACCGACAC")
-0.822
>>> reported("ACATTTGTTGATACACCCATAAATTGATATTGCCAACCATAAGTTGATATTTTTCACACCCATAAATTGATATTGCCTCTGATCATAGTCAGACCAACATTGCTACGACCCGTATTCGCACCGACAC")
-0.773

Q. Name the reported relative integration efficiency (log2) value associated with the sequence ACATTTGTTGATACAACCATAAGTTGATATTTTCAACCATAAGTTGATATTTTTCACACCCATAAATTGATATTGCCTCTGATCATAGTCAGACCAACATTGCTACGACCCGTATTCGCACCGACAC
A. 0.348

Q. Next: ACATTAGTTCATACAACCATAAAATGATAATTACACCCATAAATGGATAATTATCACACCCAATTTAACTATAACGCTCTGATCATAGTCAGACCAACATTGCTACGACCCGTATTCGCACCGACAC
A. -6.74

Q. Next up: ACATTAGTGGATACAACCATAAAATGATAATTACACCCATAAATTGATAATTATCACACCCAATTTAACTATAACGCTCTGATCATAGTCAGACCAACATTGCTACGACCCGTATTCGCACCGACAC
A. -5.98

Q. Entry ACATTTGTTGATACAACCATAAAATGATAATTACTCTGATCATAGTCAGACACCCATAAATTGATAATTATCACACCCATAAATTGATATTGCCCAACATTGCTACGACCCGTATTCGCACCGACAC please
A. -3.73

Q. Moving on to the next sequence: ACATTTGTTGATACAACCATAAAATGATAATTAATAATTATTTATAATCAGCAACTTAACCACCACCCATAAATTGATAATTATCACACCCATAAATTGATATTGCCTCTGATCATAGTCAGACCAA
A. -3.5
